target: T1, Full length recombinant HBcAg (rHBcAg) encompassing residues 1-183 (hepatitis B virus, UniProt P03146 1-183); assay: EIA, support-bound peptide, HBcAg 5 ug/ml
T1 construct: range 1-183; also called hepatitis B virus core antigen
T1 sequence (P03146 whole entry, the tested form may be a part): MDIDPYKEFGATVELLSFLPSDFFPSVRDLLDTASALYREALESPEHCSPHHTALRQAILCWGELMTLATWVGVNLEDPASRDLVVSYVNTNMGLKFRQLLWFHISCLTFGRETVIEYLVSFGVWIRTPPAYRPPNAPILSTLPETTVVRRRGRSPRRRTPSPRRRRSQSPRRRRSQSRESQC
Listing of entries alongside the reported OD at 490 nm.
Mention the unit after the number when you answer.

# count of solved cases: 5
1) PGASVKLSCKASGYIFTS [PGASVKLSCKASGYIFTS (SEQ. ID. No. 40)]	1.72 OD
2) VKPGASVKLSCKASGYIFTS (also called Peptide # 2; Pept. #2) [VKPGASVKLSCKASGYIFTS (SEQ. ID. No. 5)]	3.26 OD
3) VSTSSYSYMHWY [VSTSSYSYMHWY (SEQ. ID. No. 60)]	0.369 OD
4) SGYIFTS [SGYIFTS (SEQ. ID. No. 51)]	0.389 OD
5) GYIFTS [GYIFTS (SEQ. ID. No. 52)]	0.414 OD

Prompt: What does the record list as OD at 490 nm for SVSTSSYSYMHWY [SVSTSSYSYMHWY (SEQ. ID. No. 59)] ?
Completion: 0.305 OD

Prompt: Could you tell me which OD at 490 nm is on file for VKLSCKASGYIFTS [VKLSCKASGYIFTS (SEQ. ID. No. 44)] ?
Completion: 3.7 OD

Prompt: Given the entry STSSYSYMHWY [STSSYSYMHWY (SEQ. ID. No. 61)] , report its measured OD at 490 nm.
Completion: 0.372 OD
